Target: CDK9/Cyclin K (Homo sapiens, UniProt P50750)
Sequence (P50750 whole entry): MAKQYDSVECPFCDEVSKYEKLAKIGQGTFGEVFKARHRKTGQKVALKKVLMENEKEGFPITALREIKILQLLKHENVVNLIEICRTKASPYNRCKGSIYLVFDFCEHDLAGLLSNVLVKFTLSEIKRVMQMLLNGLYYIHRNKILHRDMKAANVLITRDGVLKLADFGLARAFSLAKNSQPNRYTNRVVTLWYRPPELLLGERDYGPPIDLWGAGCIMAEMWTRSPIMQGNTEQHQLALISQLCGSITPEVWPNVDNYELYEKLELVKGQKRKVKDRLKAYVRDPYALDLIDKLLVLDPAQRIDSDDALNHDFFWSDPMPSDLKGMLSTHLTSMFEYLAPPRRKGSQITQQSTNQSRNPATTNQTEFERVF
Sequence (O75909 whole entry partner): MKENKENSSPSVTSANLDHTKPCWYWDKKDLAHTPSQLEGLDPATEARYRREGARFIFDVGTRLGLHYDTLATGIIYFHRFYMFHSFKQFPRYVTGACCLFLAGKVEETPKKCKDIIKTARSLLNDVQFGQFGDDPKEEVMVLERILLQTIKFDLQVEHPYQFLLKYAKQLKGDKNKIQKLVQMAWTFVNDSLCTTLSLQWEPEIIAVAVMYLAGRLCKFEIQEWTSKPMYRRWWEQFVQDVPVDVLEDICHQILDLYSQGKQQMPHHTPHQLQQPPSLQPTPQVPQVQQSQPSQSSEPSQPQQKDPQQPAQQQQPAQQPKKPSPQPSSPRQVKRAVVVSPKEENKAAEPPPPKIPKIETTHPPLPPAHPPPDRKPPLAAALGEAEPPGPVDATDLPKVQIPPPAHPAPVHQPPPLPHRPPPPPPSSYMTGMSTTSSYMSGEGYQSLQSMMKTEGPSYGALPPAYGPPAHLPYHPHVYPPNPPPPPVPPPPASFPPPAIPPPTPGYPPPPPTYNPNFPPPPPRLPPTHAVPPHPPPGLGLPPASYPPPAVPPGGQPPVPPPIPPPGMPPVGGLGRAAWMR
Assay: LanthaScreen Eu Kinase Binding Assay, CDK9/Cyclin K
Settings: tracer 236, read-out: Affinity (Kd) CDK9/Cyclin K
For each record, check the reported Kd: if it is below 40 nM write satisfied, else write not satisfied.

>>> df
                                   compound  discrete_label
0  COc1ccc(F)cc1-c1ncnc(Nc2cccc(CS(N)(=O)=O)c2)n1 [Compound B3]       satisfied
1  NS(=O)(=O)Cc1cccc(Nc2ncnc(-c3ccccc3OCc3ccncc3)n2)c1 [Compound B16]       satisfied
2  COc1ccccc1-c1ncnc(Nc2cccc([N+](=O)[O-])c2)n1 [Compound H1]       satisfied
3  COc1ccc(Cl)cc1-c1ncnc(Nc2cccc(CS(N)(=O)=O)c2)n1 [Compound B7]   not satisfied
4  NCCCCOc1ccccc1-c1ncnc(Nc2cccc(CS(N)(=O)=O)c2)n1 [Compound I1]   not satisfied
5  COc1ccccc1-c1ncnc(Nc2cccc(NC(C)=O)c2)n1 [Compound M1]   not satisfied
6  CNCc1ccc(OC)c(-c2ncnc(Nc3cccc(CS(N)(=O)=O)c3)n2)c1 [Compound O1]   not satisfied
7  Nc1ccc(-c2ncnc(Nc3cccc(CS(N)(=O)=O)c3)n2)cn1 [Compound B23]       satisfied

====

Listing of recorded Kd by entry.
Biological target: CDK7/CyclinH/Mat1 (Homo sapiens)
Construct: purchased Carna Biosciences
Sequence (P50613 whole entry): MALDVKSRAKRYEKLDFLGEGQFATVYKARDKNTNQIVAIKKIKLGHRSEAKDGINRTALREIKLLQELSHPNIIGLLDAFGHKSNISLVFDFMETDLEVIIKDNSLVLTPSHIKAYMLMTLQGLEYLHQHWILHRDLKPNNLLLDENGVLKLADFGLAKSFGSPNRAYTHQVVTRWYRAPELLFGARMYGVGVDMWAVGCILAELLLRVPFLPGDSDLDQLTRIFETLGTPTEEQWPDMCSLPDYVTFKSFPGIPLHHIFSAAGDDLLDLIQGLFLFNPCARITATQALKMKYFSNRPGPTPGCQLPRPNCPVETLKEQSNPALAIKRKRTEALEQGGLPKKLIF
Sequence (P51946 whole entry partner): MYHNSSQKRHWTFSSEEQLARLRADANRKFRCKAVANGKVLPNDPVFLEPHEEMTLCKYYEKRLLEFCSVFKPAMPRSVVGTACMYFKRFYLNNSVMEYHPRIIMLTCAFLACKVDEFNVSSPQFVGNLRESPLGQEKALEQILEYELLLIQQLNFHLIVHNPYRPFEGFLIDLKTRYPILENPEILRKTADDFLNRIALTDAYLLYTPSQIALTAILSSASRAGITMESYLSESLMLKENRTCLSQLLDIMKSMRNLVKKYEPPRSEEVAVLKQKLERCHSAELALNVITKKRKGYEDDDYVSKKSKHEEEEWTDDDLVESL
Sequence (P51948 whole entry partner): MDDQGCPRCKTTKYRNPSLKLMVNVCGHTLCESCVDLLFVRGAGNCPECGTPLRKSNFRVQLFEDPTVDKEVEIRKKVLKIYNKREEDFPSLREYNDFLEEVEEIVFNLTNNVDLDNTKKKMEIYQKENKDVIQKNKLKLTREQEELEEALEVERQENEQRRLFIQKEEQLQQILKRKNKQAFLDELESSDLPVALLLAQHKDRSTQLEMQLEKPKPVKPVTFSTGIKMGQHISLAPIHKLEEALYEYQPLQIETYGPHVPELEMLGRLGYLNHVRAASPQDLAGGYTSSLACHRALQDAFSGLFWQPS
Experiment: LanthaScreen Eu Kinase Binding Assay, CDK7
Conditions: tracer 236, read-out: Affinity (Kd) CDK7
attribute-measured: Kd

                                   compound                     tested_target  measured_value
0  COc1cc(F)ccc1-c1ncnc(Nc2cccc(CS(=O)(=O)NCCCCNC(=O)OC(C)(C)C)c2)n1 [Compound Q1]  CDK7/CyclinH/Mat1 (Homo sapiens)         > 10 µM
1  COc1cc(F)ccc1-c1ncnc(Nc2cccc(CS(=O)(=O)NCCCCN)c2)n1 [Compound R1]  CDK7/CyclinH/Mat1 (Homo sapiens)         > 10 µM
2  COc1cccc(F)c1-c1ncnc(Nc2cccc(CS(N)(=O)=O)c2)n1 [Compound B4]  CDK7/CyclinH/Mat1 (Homo sapiens)         > 10 µM
3  COCc1ccccc1-c1ncnc(Nc2cccc(CS(N)(=O)=O)c2)n1 [Compound B24]  CDK7/CyclinH/Mat1 (Homo sapiens)         > 10 µM
4  COc1ccccc1-c1ncnc(Nc2cccc(CS(N)(=O)=O)c2)n1 [Compound B1]  CDK7/CyclinH/Mat1 (Homo sapiens)         > 10 µM
5  COc1ccccc1-c1ncnc(Nc2ccc3c(c2)N(S(N)(=O)=O)CC3)n1 [Compound F1]  CDK7/CyclinH/Mat1 (Homo sapiens)         13.4 µM
6  CC(C)(C)OC(=O)NCCCCOc1ccccc1-c1ncnc(Nc2cccc(CS(N)(=O)=O)c2)n1 [Compound B17]  CDK7/CyclinH/Mat1 (Homo sapiens)         12.8 µM
7  COc1ccc(C(F)(F)F)cc1-c1ncnc(Nc2cccc(CS(N)(=O)=O)c2)n1 [Compound B9]  CDK7/CyclinH/Mat1 (Homo sapiens)         > 10 µM

====

Test system: NF-kappaB reporter gene activation in HEK293 cells
Assay: NF-kappaB reporter assay
Type: cell-based
Settings: Homo sapiens, 20 ng/ml TNF alpha, 5 h
pIC50: −log10 of the molar value. Where a name gives a salt, the structure may show the parent alone.
Listing of recorded pIC50 by entry.
attribute-measured: pIC50

>>> print(df.to_string())
                                   compound  measured_value
0  COc1ccccc1-c1ncnc(Nc2cccc(CS(N)(=O)=O)c2)n1 [B1′, trifluoroacetic acid salt]            5.45
1  COc1ccccc1-c1ncnc(Nc2cccc([N+](=O)[O-])c2)n1 [Compound H1]            5.57
2  CCOc1ccccc1-c1ncnc(Nc2cccc(CS(N)(=O)=O)c2)n1 [Compound B12]            5.44
3  NS(=O)(=O)Cc1cccc(Nc2ncnc(-c3ccccc3Oc3ccccc3)n2)c1 [Compound B14]            5.40
4  COc1cc(F)ccc1-c1ncnc(Nc2cccc(CS(N)(=O)=O)c2)n1 [B2″, trifluoroacetic acid salt]            5.80
5  COc1ccccc1-c1ncnc(Nc2cccc(CCS(N)(=O)=O)c2)n1 [Compound D1]            5.30
6  COc1cc(Cl)ccc1-c1ncnc(Nc2cccc(CS(N)(=O)=O)c2)n1 [Compound B6]            5.60
7  CCCS(=O)(=O)Nc1cccc(Nc2ncnc(-c3ccccc3OC)n2)c1 [Compound L1]            5.19

====

Listing of recorded pIC50 by entry.
System: DU145 cells
Experiment: Cell viability, DU145 cells
Type: cell-based, human
Settings: Homo sapiens, DU-145
pIC50: −log10 of the molar value. Counter-ions that a name gives are not always drawn.
attribute-measured: pIC50

>>> print(df.to_string())
                                   molecule  attribute_measured  measured_value
0  COc1ccccc1-c1ncnc(Nc2cccc(CS(N)(=O)=O)c2)n1 [B1′, trifluoroacetic acid salt]               pIC50            5.42
1  NS(=O)(=O)Cc1cccc(Nc2ncnc(-c3ccccc3OCc3ccccc3)n2)c1 [B13′, trifluoroacetic acid salt]               pIC50            6.48
2  COc1ccccc1-c1ncnc(Nc2cccc(S(N)(=O)=O)c2)n1 [C1′, trifluoroacetic acid salt]               pIC50            6.00
3  COc1cc(F)ccc1-c1ncnc(Nc2cccc(CS(N)(=O)=O)c2)n1 [Compound B2]               pIC50            5.82

====

Biological target: CDK9/Cyclin K (Homo sapiens, UniProt P50750)
Assay: LanthaScreen Eu Kinase Binding Assay, CDK9/Cyclin K
Conditions: tracer 236, read-out: Affinity (Kd) CDK9/Cyclin K
Where a name gives a salt, the structure may show the parent alone.
attribute-measured: Kd (nM)

                                    compound                             tested_target  measured_value
 0  COc1ccccc1-c1ncnc(Nc2cccc(S(N)(=O)=O)c2)n1 [C1′, trifluoroacetic acid salt]  CDK9/Cyclin K (Homo sapiens, UniProt P50750)               5
 1  CCOC(=O)N=S(C)(=O)c1cccc(Nc2ncnc(-c3ccccc3OC)n2)c1 (racemic)  CDK9/Cyclin K (Homo sapiens, UniProt P50750)            87.2
 2  COc1ccccc1-c1ncnc(Nc2cccc(C(N)=O)c2)n1 [Compound E1]  CDK9/Cyclin K (Homo sapiens, UniProt P50750)             301
 3  COc1ccccc1-c1ncnc(Nc2cccc(CS(N)(=O)=O)c2)n1 [B1′, trifluoroacetic acid salt]  CDK9/Cyclin K (Homo sapiens, UniProt P50750)            48.7
 4  NS(=O)(=O)Cc1cccc(Nc2ncnc(-c3ccccc3CNC3CC3)n2)c1  CDK9/Cyclin K (Homo sapiens, UniProt P50750)             373
 5  COc1cc(C(F)(F)F)ccc1-c1ncnc(Nc2cccc(CS(N)(=O)=O)c2)n1  CDK9/Cyclin K (Homo sapiens, UniProt P50750)             709
 6  COc1cc(F)ccc1-c1ncnc(Nc2cccc(CCS(N)(=O)=O)c2)n1 [Compound D2]  CDK9/Cyclin K (Homo sapiens, UniProt P50750)               5
 7  COc1ccc(CO)cc1-c1ncnc(Nc2cccc(CS(N)(=O)=O)c2)n1  CDK9/Cyclin K (Homo sapiens, UniProt P50750)             110
 8  COc1cc(Cl)ccc1-c1ncnc(Nc2cccc(CS(N)(=O)=O)c2)n1  CDK9/Cyclin K (Homo sapiens, UniProt P50750)            12.5
 9  COc1c(F)cc(F)cc1-c1ncnc(Nc2cccc(CS(N)(=O)=O)c2)n1  CDK9/Cyclin K (Homo sapiens, UniProt P50750)             286
10  COc1ccccc1-c1ncnc(Nc2cccc(CCS(N)(=O)=O)c2)n1 [Compound D1]  CDK9/Cyclin K (Homo sapiens, UniProt P50750)            99.5
11  NS(=O)(=O)Cc1cccc(Nc2ncnc(-c3ccccc3OCc3ccccc3)n2)c1 [B13′, trifluoroacetic acid salt]  CDK9/Cyclin K (Homo sapiens, UniProt P50750)               5
12  NS(=O)(=O)Cc1cccc(Nc2ncnc(-c3ccccc3Oc3ccccc3)n2)c1  CDK9/Cyclin K (Homo sapiens, UniProt P50750)            26.4
13  COc1cc(F)ccc1-c1ncnc(Nc2cccc(CS(=O)(=O)NCCCCN)c2)n1  CDK9/Cyclin K (Homo sapiens, UniProt P50750)               5
14  CCOc1ccccc1-c1ncnc(Nc2cccc(CS(N)(=O)=O)c2)n1  CDK9/Cyclin K (Homo sapiens, UniProt P50750)            11.1
15  COc1cc(F)ccc1-c1ncnc(Nc2cccc(CS(N)(=O)=O)c2)n1 [B2″, trifluoroacetic acid salt]  CDK9/Cyclin K (Homo sapiens, UniProt P50750)               5
16  CC(C)(C)OC(=O)NCCCCOc1ccccc1-c1ncnc(Nc2cccc(CS(N)(=O)=O)c2)n1  CDK9/Cyclin K (Homo sapiens, UniProt P50750)             6.4
17  COc1ccncc1-c1ncnc(Nc2cccc(CS(N)(=O)=O)c2)n1  CDK9/Cyclin K (Homo sapiens, UniProt P50750)             302
18  COc1ccccc1-c1ncnc(Nc2cccc(NC(=O)Nc3ccccc3)c2)n1  CDK9/Cyclin K (Homo sapiens, UniProt P50750)             159
19  COc1cc(F)ccc1-c1ncnc(Nc2cccc(CS(=O)(=O)NCCCCNC(=O)OC(C)(C)C)c2)n1  CDK9/Cyclin K (Homo sapiens, UniProt P50750)               5
20  COc1ccc(C(F)(F)F)cc1-c1ncnc(Nc2cccc(CS(N)(=O)=O)c2)n1  CDK9/Cyclin K (Homo sapiens, UniProt P50750)            1590
21  COc1cnccc1-c1ncnc(Nc2cccc(CS(N)(=O)=O)c2)n1  CDK9/Cyclin K (Homo sapiens, UniProt P50750)            11.5
22  COc1cccc(F)c1-c1ncnc(Nc2cccc(CS(N)(=O)=O)c2)n1  CDK9/Cyclin K (Homo sapiens, UniProt P50750)            20.9
23  NS(=O)(=O)Cc1cccc(Nc2ncnc(-c3cccc4c3OCO4)n2)c1  CDK9/Cyclin K (Homo sapiens, UniProt P50750)            2460
24  COCc1ccccc1-c1ncnc(Nc2cccc(CS(N)(=O)=O)c2)n1  CDK9/Cyclin K (Homo sapiens, UniProt P50750)            1110
25  COc1ccccc1-c1ncnc(Nc2cccc(NS(C)(=O)=O)c2)n1  CDK9/Cyclin K (Homo sapiens, UniProt P50750)            35.9

Reference source for all entries: patent US20130079345A1
